Numbers sourced from patent US20250228835A1.

target_or_system: ABCA4 P1380L (Homo sapiens, UniProt P78363, P1380L)
Construct: expressed in transfected cells
Sequence (P78363 whole entry P1380L): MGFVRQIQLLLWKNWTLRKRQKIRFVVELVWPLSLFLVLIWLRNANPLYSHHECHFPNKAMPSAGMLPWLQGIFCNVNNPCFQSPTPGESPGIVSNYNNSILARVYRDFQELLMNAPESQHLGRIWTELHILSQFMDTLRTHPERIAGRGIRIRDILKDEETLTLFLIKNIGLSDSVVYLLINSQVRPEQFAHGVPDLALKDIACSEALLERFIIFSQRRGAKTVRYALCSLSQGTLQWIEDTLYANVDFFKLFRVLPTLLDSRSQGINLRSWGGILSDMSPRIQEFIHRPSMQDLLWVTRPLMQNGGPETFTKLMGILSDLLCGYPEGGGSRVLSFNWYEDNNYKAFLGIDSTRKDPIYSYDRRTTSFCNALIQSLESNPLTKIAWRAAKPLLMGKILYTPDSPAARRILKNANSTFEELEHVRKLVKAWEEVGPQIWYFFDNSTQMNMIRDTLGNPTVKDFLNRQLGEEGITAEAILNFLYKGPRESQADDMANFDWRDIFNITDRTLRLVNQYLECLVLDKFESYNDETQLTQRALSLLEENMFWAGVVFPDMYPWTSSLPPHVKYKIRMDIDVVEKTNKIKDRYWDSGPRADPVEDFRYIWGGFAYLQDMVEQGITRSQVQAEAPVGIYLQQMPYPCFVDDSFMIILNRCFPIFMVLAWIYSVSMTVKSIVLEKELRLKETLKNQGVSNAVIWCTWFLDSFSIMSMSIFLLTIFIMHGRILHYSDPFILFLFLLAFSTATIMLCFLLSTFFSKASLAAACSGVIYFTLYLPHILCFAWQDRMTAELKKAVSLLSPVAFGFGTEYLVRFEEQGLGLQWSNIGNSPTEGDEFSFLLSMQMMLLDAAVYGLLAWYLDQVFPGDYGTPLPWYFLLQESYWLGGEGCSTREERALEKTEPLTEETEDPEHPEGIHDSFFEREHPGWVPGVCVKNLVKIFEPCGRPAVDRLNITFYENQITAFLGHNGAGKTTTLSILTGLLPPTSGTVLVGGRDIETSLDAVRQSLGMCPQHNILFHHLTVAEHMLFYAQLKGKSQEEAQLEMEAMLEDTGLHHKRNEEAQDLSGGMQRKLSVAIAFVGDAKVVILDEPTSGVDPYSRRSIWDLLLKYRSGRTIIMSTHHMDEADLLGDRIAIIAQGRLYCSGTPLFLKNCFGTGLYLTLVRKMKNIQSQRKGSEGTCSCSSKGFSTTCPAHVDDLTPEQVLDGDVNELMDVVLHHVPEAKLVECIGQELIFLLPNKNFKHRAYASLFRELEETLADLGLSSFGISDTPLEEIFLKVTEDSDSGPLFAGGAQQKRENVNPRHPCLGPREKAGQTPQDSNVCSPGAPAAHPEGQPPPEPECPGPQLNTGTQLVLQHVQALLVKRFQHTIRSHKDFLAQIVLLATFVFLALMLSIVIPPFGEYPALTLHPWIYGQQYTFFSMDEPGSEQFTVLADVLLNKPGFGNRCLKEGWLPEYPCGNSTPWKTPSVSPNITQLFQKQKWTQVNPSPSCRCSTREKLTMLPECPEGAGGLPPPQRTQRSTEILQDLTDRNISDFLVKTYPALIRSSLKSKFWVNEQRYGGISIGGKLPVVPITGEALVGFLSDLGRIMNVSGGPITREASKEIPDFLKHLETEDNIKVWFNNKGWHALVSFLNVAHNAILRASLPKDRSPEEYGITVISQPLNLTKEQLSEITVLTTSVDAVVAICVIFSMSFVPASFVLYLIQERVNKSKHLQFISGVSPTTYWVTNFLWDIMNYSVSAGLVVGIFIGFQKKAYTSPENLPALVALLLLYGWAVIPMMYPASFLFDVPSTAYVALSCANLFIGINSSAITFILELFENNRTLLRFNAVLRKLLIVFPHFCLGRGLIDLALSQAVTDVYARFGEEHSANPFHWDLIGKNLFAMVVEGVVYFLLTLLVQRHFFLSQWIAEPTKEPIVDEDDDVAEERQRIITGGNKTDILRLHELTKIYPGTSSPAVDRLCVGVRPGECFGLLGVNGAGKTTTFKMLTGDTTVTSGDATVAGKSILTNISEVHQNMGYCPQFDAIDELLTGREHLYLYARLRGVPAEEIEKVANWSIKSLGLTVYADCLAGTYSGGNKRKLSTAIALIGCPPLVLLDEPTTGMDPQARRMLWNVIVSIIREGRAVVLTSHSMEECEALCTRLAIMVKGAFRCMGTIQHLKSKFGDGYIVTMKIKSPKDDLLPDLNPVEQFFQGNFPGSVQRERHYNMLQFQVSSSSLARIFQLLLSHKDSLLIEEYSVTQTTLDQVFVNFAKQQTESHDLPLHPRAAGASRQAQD
procedure_details: A4 correction dose-response assay: ABCA4 P1380L HiBit protein expression
Type: cell-based
assay_context: HEK-293 cells stably expressing HiBit-tagged ABCA4 P1380L; 24 h treatment; top concentration 30 μM; read-out: ABCA4 P1380L EC50, Emax
pEC50: −log10 of the molar value.
Entries and their pEC50

[
  {
    "compound": "Cc1cc(C)c(Oc2nc(-c3cncc(Cl)c3)ccc2S(=O)(=O)NCc2ccccn2)c(C)c1",
    "pEC50": "> 4.60"
  },
  {
    "compound": "Cc1cc(C(F)F)nc(C)c1Oc1nc(-c2cncc(C#N)c2)ccc1NS(C)(=O)=O",
    "pEC50": "> 6.00"
  },
  {
    "compound": "Cc1cc(OC2CC2)nc(C)c1Oc1nc(-c2cncc(C#N)c2)ccc1NS(C)(=O)=O",
    "pEC50": "> 6.00"
  },
  {
    "compound": "Cc1cc(C)c(Oc2nc(-c3cncc(Cl)c3)ccc2NS(=O)(=O)c2cccnc2)c(C)c1",
    "pEC50": "< 4.60"
  },
  {
    "compound": "CCS(=O)(=O)Nc1ccc(-c2cncc(C#N)c2)nc1Oc1c(C)cc(C)nc1C",
    "pEC50": "> 6.00"
  },
  {
    "compound": "Cc1cc(C)c(Oc2nc(-c3ccc(C#N)nc3)ccc2NS(C)(=O)=O)c(C)c1",
    "pEC50": "> 6.00"
  },
  {
    "compound": "Cc1cc(C)c(Oc2nc(-c3ccc(C#N)nc3)ccc2NS(C)(=O)=O)c(C)n1",
    "pEC50": "> 6.00"
  },
  {
    "compound": "CNS(=O)(=O)c1ccc(-c2cncc(C#N)c2)nc1Oc1c(C)cc(C)nc1C",
    "pEC50": "5.00 to 6.00"
  },
  {
    "compound": "Cc1cc(C(F)(F)F)nc(C2CC2)c1Oc1nc(-c2cccc(C#N)c2)ccc1S(=N)(=O)C1CC1 (stereo not shown)",
    "pEC50": "> 4.60"
  },
  {
    "compound": "Cc1cc(C(F)(F)F)nc(C2CC2)c1Oc1nc(-c2cncc(C#N)c2)ccc1NS(=O)(=O)C(C)C",
    "pEC50": "> 6.00"
  },
  {
    "compound": "Cc1cc(C)c(Oc2nc(-c3cncc(C4COC4)c3)ccc2NS(C)(=O)=O)c(C)n1",
    "pEC50": "< 4.60"
  },
  {
    "compound": "Cc1cc(C)c(Oc2nc(-c3cncc(Cl)c3)ncc2S(N)(=O)=O)c(C)c1Cl",
    "pEC50": "5.00 to 6.00"
  },
  {
    "compound": "Cc1cc(C(F)F)nc(C2CC2)c1Oc1nc(-c2cncc(C#N)c2)ccc1S(=O)(=O)NC1COC1",
    "pEC50": "> 4.60"
  },
  {
    "compound": "Cc1cc(C)c(Oc2nc(-c3cncc(Cl)c3)cnc2NS(C)(=O)=O)c(C)c1",
    "pEC50": "> 4.60"
  },
  {
    "compound": "Cc1cc(C2CC2)cc(C)c1Oc1nc(-c2cncc(C#N)c2)ccc1NS(C)(=O)=O",
    "pEC50": "> 6.00"
  },
  {
    "compound": "Cc1cc(C)c(Oc2nc(N3CCN(S(C)(=O)=O)CC3)ccc2NS(C)(=O)=O)c(C)c1",
    "pEC50": "< 4.60"
  }
]
